Cited source: paper PMC8219695

# system.name: mKOR (Mus musculus, UniProt P33534)
# Construct: expressed in transfected cells; membranes
# assay.summary: [125I]BNtxA radioligand competition binding, mouse KOR
readout.kind: Ki
Report field: quantity (unit follows the number).

Measured Ki of CC[C@@H]1CN2CC[C@@]3(O)C(=Nc4cccc(OC)c43)[C@@H]2C[C@@H]1/C(=C\OC)C(=O)OC [7OH, 7-Hydroxymitragynine, reference compound] : 119 nM

----------
# system.name: mDOR (Mus musculus)
# Construct: expressed in transfected cells
# assay.summary: CAMYEL BRET cAMP agonist assay at mDOR
# Assay type: cell-based
readout.kind: EC50 (nM)
Give bare numbers, in nM.

Entry CC[C@@H]1CN2CC[C@@]3(O)C(=Nc4cccc(OC)c43)[C@@H]2C[C@@H]1/C(=C\OC)C(=O)OC [7OH, 7-Hydroxymitragynine, reference compound] under mDOR (Mus musculus) had EC50 of 71.4

----------
# system.name: mMOR (Mus musculus)
# Construct: signal peptide (heterologous, not specified) (N); expressed in transfected cells; pcDNA3.1(+) construct made in house
# assay.summary: CAMYEL BRET cAMP agonist assay at mMOR
# Format: cell-based
readout.kind: EC50 (nM)
One number for each entry, in nM.

Entry CC[C@@H]1CN2CC[C@@]3(O)C(=Nc4cccc(OC)c43)[C@@H]2C[C@@H]1/C(=C\OC)C(=O)OC [7OH, 7-Hydroxymitragynine, reference compound] under mMOR (Mus musculus) had EC50 of 48

----------
# system.name: mMOR (Mus musculus, UniProt P42866)
# Construct: signal peptide (heterologous, not specified) (N); expressed in transfected cells; pcDNA3.1(+) construct made in house
# assay.summary: CAMYEL BRET cAMP agonist assay at mMOR
# Type: cell-based
# setup.conditions: mMOR; n = 3; read-out: EC50
So I've got a bunch of molecules here, and I need their EC50 values.
One number for each entry, in nM.

CC[C@@H]1CN2CC[C@@]3(O)C(=Nc4cc(Cl)cc(OC)c43)[C@@H]2C[C@@H]1/C(=C\OC)C(=O)OC [11-Cl-7OH (23), 11-Cl-7OH] = 841

Measured EC50 of CC[C@@H]1CN2CC[C@@]3(O)C(=Nc4cc(F)cc(OC)c43)[C@@H]2C[C@@H]1/C(=C\OC)C(=O)OC [11-F-7OH (22), 11-Fluoro-7-hydroxymitragynine] : 97

----------
# system.name: mDOR (Mus musculus, UniProt P32300)
# Construct: expressed in transfected cells
# assay.summary: CAMYEL BRET cAMP agonist assay at mDOR
# Type: cell-based
# setup.conditions: mDOR cAMP BRET; read-out: EC50
readout.kind: pEC50
Give bare numbers, as −log10 of the molar value.

Measured pEC50 of CC[C@@H]1CN2CC[C@@]3(O)C(=Nc4cc(F)cc(OC)c43)[C@@H]2C[C@@H]1/C(=C\OC)C(=O)OC [11-F-7OH (22), 11-Fluoro-7-hydroxymitragynine] : 6.99

----------
# system.name: mDOR (Mus musculus, UniProt P32300)
# Construct: expressed in transfected cells
# assay.summary: [125I]BNtxA radioligand competition binding, mouse DOR
readout.kind: Ki (nM)
Numbers only, in nM.

Measured Ki of CC[C@@H]1CN2CC[C@@]3(O)C(=Nc4cccc(OC)c43)[C@@H]2C[C@@H]1/C(=C\OC)C(=O)OC [7OH, 7-Hydroxymitragynine, reference compound] : 88.5
